# Tested on: Vero E6
# Assay explanation: cell viability relative to DMSO; higher = less toxic
# Applied conditions: 72 h; 100 nM
Item-by-item account of cell viability
Quantity: cell viability

Compound | Measured value
O=C(NCc1ccc(OC(F)(F)F)cc1)C1c2ccccc2C(=O)N1C1CCOCC1 (stereo not given) [NAV-26] | 88.7%
Cc1ccc(=O)n(-c2ccccc2)c1 [pirfenidone] | 105%
C=CCN1CC[C@]2(C)c3cc(O)ccc3C[C@H]1[C@H]2C | 93.4%
COc1ccc(-c2csc(NC(=O)[C@H]3CCCCN3S(=O)(=O)c3ccc(C)cc3)n2)cc1 [ML277] | 105%
N[C@H](C(=O)O)c1ccc(O)cc1 [oxfenicine] | 101%
[NH-]c1c[n+](N2CCOCC2)no1 [linsidomine] | 95.6%
O=C(O)c1cc(O)c2c(Cl)cc(Cl)cc2n1 [5,7-dichlorokynurenic-acid] | 100%
CN1C(=O)CCS(=O)(=O)C1c1ccc(Cl)cc1 (stereo not given) [chlormezanone] | 104%
Cc1cc(=O)[nH]c(=S)[nH]1 [methylthiouracil] | 100%
NS(=O)(=O)c1cc2c(cc1C(F)(F)F)NCNS2(=O)=O [hydroflumethiazide] | 98.5%

* * *

Item-by-item account of cell viability
# Tested on: Calu-3
# Assay explanation: cell viability relative to DMSO; higher = less toxic
# Applied conditions: 72 h; 10000 nM

Compound | cell viability / %
CC1=C(C)C(=O)C(C(CCCCCC(=O)O)c2ccccc2)=C(C)C1=O (centres undefined) | 104
COc1cc2c(NC3CCN(CC4CCCCC4)CC3)nc(N3CCCN(C(C)C)CC3)nc2cc1OCCCN1CCCCC1 | 18.9
O[C@H]([C@H](O)[C@@H]1CO1)[C@H]1CO1 [dianhydrogalactitol] | 94.2
O=C(CCCN1CCC2(CC1)C(=O)N(Cc1cccc(F)c1)CN2c1ccccc1)c1ccc(F)cc1 | 29.7
CC[C@@]1(O)C(=O)OCc2c1cc1n(c2=O)Cc2cc3cc(O)ccc3nc2-1 [10-hydroxycamptothecin] | 20.2
Cc1ccc(=O)n(-c2ccccc2)c1 | 109
CC#CC(=O)N1CC[C@@H](n2c(=O)n(-c3ccc(Oc4ccccc4)cc3)c3c(N)ncnc32)C1 | 41.3
O=S(=O)(F)Cc1ccccc1 [phenylmethylsulfonyl-fluoride] | 102
COc1cc2nc(N3CCN(C(=O)COc4c(OC)cccc4C(C)C)CC3)nc(N)c2cc1OC | 84.8
COC(=O)c1c(C)[nH]c(C)c1C(=O)c1ccccc1Cc1ccccc1 | 90.1
CCCCCCCCCCCCCCCCCCCCCC(=O)Nc1ccn([C@@H]2O[C@H](CO)[C@@H](O)[C@@H]2O)c(=O)n1 | 95.7
O=[N+]([O-])c1cn2c(n1)OC[C@@H](OCc1ccc(OC(F)(F)F)cc1)C2 | 103
Cn1c(=O)n(-c2ccc(C(C)(C)C#N)cc2)c2c3cc(-c4cnc5ccccc5c4)ccc3ncc21 | 28.7
CC1CCC(NC(=O)N(CCCl)N=O)CC1 (centres undefined) | 99.4

* * *

Item-by-item account of cell viability
# Test system: Caco-2
# Assay explanation: cell viability relative to DMSO; higher = less toxic
# Applied conditions: 72 h; 100 nM

Compound | Measurement unit | cell viability
c1ccc(N2CCN(Cc3nc4ccccc4[nH]3)CC2)nc1 | % | 97.8
Cc1ccc(NC(=O)c2ccc(CN3CCN(C)CC3)cc2)cc1Nc1nc(-c2cccnc2)cs1 | % | 99.1
N#Cc1ccc(C2CCCc3cncn32)cc1 (stereo not drawn) | % | 89.6
COC(=O)[C@@H](N)CS | % | 97.7
C=CCN1CC[C@]2(C)c3cc(O)ccc3C[C@H]1[C@H]2C | % | 102
CCCCC(CC)CNC(=N)NC(=N)NCCCCCCNC(=N)NC(=N)NCC(CC)CCCC (stereo not drawn) | % | 105
CC1=C(C(=O)O)N2C(=O)[C@@H](NC(=O)[C@H](N)c3ccc(O)cc3)[C@H]2SC1 | % | 93.1
N=C(N)NC(=N)NCCc1ccccc1 | % | 93.7
CC[C@@]1(O)C(=O)OCc2c1cc1n(c2=O)Cc2cc3cc(O)ccc3nc2-1 [10-hydroxycamptothecin] | % | 89.3
COc1cc2c(cc1OC)-c1c/c(=N\c3c(C)cc(C)cc3C)n(C)c(=O)n1CC2 | % | 97.2
COc1cc2c(cc1NS(=O)(=O)c1ccc(Br)cc1C)n(C)c(=O)n2C | % | 102
C=CC1=C(C)c2cc3[nH]c(cc4nc(cc5[nH]c(cc1n2)c(C)c5CCC(=O)O)C(CCC(=O)O)=C4C)c(C)c3C=C | % | 92.7
C=CC[C@]1(O)CC[C@H]2[C@@H]3CCC4=CC(=O)CCC4=C3C=C[C@@]21C | % | 99
Cc1cccc(-c2[nH]c(CNc3ccccc3F)nc2-c2ccc3ncnn3c2)n1 | % | 94.1
COC(=O)[C@H](Cc1ccccc1)NC(=O)[C@@H](N)CC(=O)O | % | 101
Cc1ccc(=O)n(-c2ccccc2)c1 | % | 102
O=C(NCCN1CCCCC1)c1ccc(I)cc1 [N-[2-(piperidinylamino)ethyl]-4-iodobenzamide] | % | 105
NC(=O)c1ccc(F)c2c1C[C@@H](N(C1CCC1)C1CCC1)CO2 | % | 97.5
